Data origin, for the record: patent US10744109B2

# ASSAY EXPLANATION: Study of pharmacokinetics, intramuscular injection in male rats
# Type: in vivo
# TEST CONDITIONS: whole blood, im, rat, intramuscular injection of aqueous suspension of formula (I), 17.5 μM/Kg
EXPERIMENTAL READOUT: AUC(0-inf)

Any idea what its AUC(0-inf) is? The compound is C[C@@]12CCCCC[C@@H](Cc3c(F)cc(O)cc31)[C@@H]2N
5.81 µM·h

---

# ASSAY EXPLANATION: Study of pharmacokinetics, intramuscular injection in male rats
# Format: in vivo
# TEST CONDITIONS: whole blood, im, rat, intramuscular injection of aqueous suspension of formula (I), 17.5 μM/Kg
EXPERIMENTAL READOUT: half-life (h)
Your answer should be a plain number; it is taken to be in h.

Any idea what its half-life is? The compound is C[C@@]12CCCCC[C@@H](Cc3c(F)cc(O)cc31)[C@@H]2N
7.52
